test: gradient 5% acetonitrile 3 min, to 50% in 2 min, to 85% in 15 min, held 3 min, 100 µL/min; settings: column: Zorbax Extend-C18 2.1 x 50 mm; eluents: water / acetonitrile, 0.1% formic acid
Mark F for RP-LC retention time values under 900 s, and T for everything at or above.

compound: COCCCNC(=O)c1ncoc1-c1ccccc1C(=O)N1CCCC1
qualitative label: F

compound: Cc1ccc(-c2cc3c(N4CCCC(C(=O)NC5CCCCC5)C4)nccn3n2)c(C)c1 (stereo not given)
qualitative label: T

compound: CSc1cccc(NC(=O)C2CCN(c3cnc4nccnc4c3)CC2)c1
qualitative label: F

Please find the next compound below.
Query block: Identify whether the reported RP-LC retention time of the following compound is 900 s or greater: Cc1nc(C2CC23CCN(S(=O)(=O)c2c(C)c(C)cc(C)c2C)CC3)no1 (stereo not given)
Result block: T

----------
Entries and their RP-LC retention time
assay: gradient 5% acetonitrile 3 min, to 50% in 2 min, to 85% in 15 min, held 3 min, 100 µL/min; conditions: column: Zorbax Extend-C18 2.1 x 50 mm; eluents: water / acetonitrile, 0.1% formic acid
Your answer should be a plain number; it is taken to be in s.

mol smiles: COc1ccc(N2CCN(c3nccc4ccc(C(=O)NC5CCCC5)cc34)CC2)cc1
RP-LC retention time [s]: 734
--
mol smiles: NS(=O)(=O)c1ccc(CCNC(=O)c2cn3cc(Cl)ccc3n2)cc1
RP-LC retention time [s]: 660
--
mol smiles: CCOc1cccc(CNC(=O)c2cnc(-c3ccccc3)nc2-c2ccncc2)c1
RP-LC retention time [s]: 855
--
mol smiles: O=C(NCCC1=CCCCC1)C(=O)NCCN1CCN(c2ccc(F)cc2)CC1
RP-LC retention time [s]: 633

API: the following record is the query input.
Query block: Given the entry "Cc1cc(N2CCN(C(=O)CCc3c[nH]c4ccccc34)CC2)nc2ccccc12" , report its measured RP-LC retention time.
Result block: 584

----------
assay: gradient 5% acetonitrile 3 min, to 50% in 2 min, to 85% in 15 min, held 3 min, 100 µL/min; conditions: column: Zorbax Extend-C18 2.1 x 50 mm; eluents: water / acetonitrile, 0.1% formic acid
readout: RP-LC retention time (s)
Your answer should be a plain number; it is taken to be in s.

Examples from the recorded data:
compound: COC(=O)c1cc(S(=O)(=O)N2CCCC2C(=O)Nc2ccccc2C(F)(F)F)cn1C (centres undefined)
readout: RP-LC retention time
unit info: s
data value: 918
--
compound: Cc1ccc(CSc2nnc3c(S(=O)(=O)N4CCN(c5ccc(F)cc5)CC4)cccn23)cc1
readout: RP-LC retention time
unit info: s
data value: 998
--
compound: CCCNC(=O)C1CCN(c2ccc(SCC(=O)Nc3ccc4c(c3)OCO4)nn2)CC1
readout: RP-LC retention time
unit info: s
data value: 610
--
compound: c1ccc(-c2nc(-c3ccc(OC4CNC4)cc3)no2)cc1
readout: RP-LC retention time
unit info: s
data value: 686
--
compound: CN(C)CCN(Cc1ccccc1)C(=O)Cn1c(=O)oc2ccccc21
readout: RP-LC retention time
unit info: s
data value: 645
--
compound: COc1cccc(NS(=O)(=O)c2cc(-c3[nH]ncc3C(=O)N(C)C)oc2C)c1
readout: RP-LC retention time
unit info: s
data value: 668

Query block: Given the entry "CCOC(=O)N1CCN(C(=O)CSc2ccc(-c3sc(C)nc3C)nn2)CC1" , report its measured RP-LC retention time.
Result block: 632

Query block: Given the entry Cc1ccc(NC(=O)CSc2ccc(N3CCCC(C(=O)NC4CC4)C3)nn2)cc1 (centres undefined) , report its measured RP-LC retention time.
Result block: 659

Query block: Given the entry "COCCN(Cc1ccc(Cl)cc1)Cc1cc(=O)n2ccc(C)cc2n1" , report its measured RP-LC retention time.
Result block: 657
